Reference source: patent US4920103A

test system: Staphylococcus aureus V41; test: MIC, standard agar-dilution assay, S. aureus V41; type: cell-based; conditions: Staphylococcus aureus, V41
MIC overview
MEASURED METRIC: MIC

MOLECULE | MEASURED METRIC | RESULT
CCC1OC(=O)CC(O)C(C)C(OC2OC(C)C(O)C(N(C)C)C2O)C(CCOc2ccccc2)CC(C)C(=O)C=CC(C)=CC1COC1OC(C)C(NCC#N)C(OC)C1OC (stereo not drawn) [Compound 27] | MIC | 1 µg/mL
CCC1OC(=O)CC(O)C(C)C(OC2OC(C)C(O)C(N(C)C)C2O)C(CCOc2ccccc2)CC(C)C(=O)C=CC(C)=CC1COC1OC(C)C(OS(C)(=O)=O)C(OC)C1OC (stereo not drawn) [Compound 15] | MIC | 2 µg/mL
CCC1OC(=O)CC(O)C(C)C(OC2OC(C)C(O)C(N(C)C)C2O)C(CCOc2ccccc2)CC(C)C(=O)C=CC(C)=CC1COC1OC(C)C(=O)C(OC)C1OC (stereo not drawn) [Compound 2, 4"-Oxo-20-DH-20-O-phenyl-desmycosin] | MIC | 0.5 µg/mL
CCC1OC(=O)CC(O)C(C)C(OC2OC(C)C(O)C(N(C)C)C2O)C(CCOc2ccccc2)CC(C)C(=O)C=CC(C)=CC1COC1OC(C)C(OC)C(O)C1OC (stereo not drawn) [Compound 50, 4"-O-Methyl-20-DH-20-O-phenyl-lactenocin] | MIC | 0.5 µg/mL
CCCN(CCC)C1C(C)OC(OCC2C=C(C)C=CC(=O)C(C)CC(CCOc3ccccc3)C(OC3OC(C)C(O)C(N(C)C)C3O)C(C)C(O)CC(=O)OC2CC)C(OC)C1OC (stereo not drawn) [Compound 48] | MIC | 16 µg/mL
CCC1OC(=O)CC(O)C(C)C(OC2OC(C)C(O)C(N(C)C)C2O)C(CCOc2ccccc2)CC(C)C(=O)C=CC(C)=CC1COC1OC(C)C(NC(C)=O)C(OC)C1OC (stereo not drawn) [Compound 37] | MIC | 4 µg/mL
CCC1OC(=O)CC(O)C(C)C(OC2OC(C)C(O)C(N(C)C)C2O)C(CCOc2ccccc2)CC(C)C(=O)C=CC(C)=CC1COC1OC(C)/C(=N\OC)C(OC)C1OC (stereo not drawn) [Compound 6] | MIC | 2 µg/mL
CCC1OC(=O)CC(O)C(C)C(OC2OC(C)C(O)C(N(C)C)C2O)C(CCOc2ccccc2)CC(C)C(=O)C=CC(C)=CC1COC1OC(C)CC(OC)C1OC (stereo not drawn) [Compound 11, 4"-Deoxy-20-DH-20-O-phenyl-desmycosin] | MIC | 0.25 µg/mL
CCC1OC(=O)CC(O)C(C)C(OC2OC(C)C(O)C(N(C)C)C2O)C(CCOc2ccccc2)CC(C)C(=O)C=CC(C)=CC1COC1OC(C)C(OCCOC)C(OC)C1OC (stereo not drawn) [Compound 44] | MIC | 2 µg/mL

* * *

MIC overview
tested on: Staphylococcus aureus V41; assay: MIC, standard agar-dilution assay, S. aureus V41; assay type: cell-based; conditions: Staphylococcus aureus, V41

COMPOUND | SYSTEM NAME | UNIT LABEL | MIC
CCC1OC(=O)CC(O)C(C)C(OC2OC(C)C(O)C(N(C)C)C2O)C(CCOc2ccccc2)CC(C)C(=O)C=CC(C)=CC1COC1OC(C)C(N(C)CC#N)C(OC)C1OC (centres unmarked) | Staphylococcus aureus V41 | µg/mL | 2
CCC1OC(=O)CC(O)C(C)C(OC2OC(C)C(OC(C)=O)C(N(C)C)C2OC(C)=O)C(CCOc2ccccc2)CC(C)C(=O)C=CC(C)=CC1COC1OC(C)CC(OC)C1OC (centres unmarked) | Staphylococcus aureus V41 | µg/mL | 0.5
CCC1OC(=O)CC(O)C(C)C(OC2OC(C)C(O)C(N(C)C)C2O)C(CCOc2ccccc2)CC(C)C(=O)C=CC(C)=CC1COC1OC(C)C(NC)C(OC)C1OC (centres unmarked) | Staphylococcus aureus V41 | µg/mL | 0.5
CCC1OC(=O)CC(O)C(C)C(OC2OC(C)C(O)C(N(C)C)C2O)C(CCOc2ccccc2)CC(C)C(=O)C=CC(C)=CC1COC1OC(C)C(=NO)C(OC)C1OC (centres unmarked) | Staphylococcus aureus V41 | µg/mL | 1
CCC1OC(=O)CC(O)C(C)C(OC2OC(C)C(O)C(N(C)C)C2O)C(CCOc2ccccc2)CC(C)C(=O)C=CC(C)=CC1COC1OC(C)C(N)C(OC)C1OC (centres unmarked) | Staphylococcus aureus V41 | µg/mL | 0.5

* * *

test system: Haemophilus influenzae 76; assay: MIC, standard agar-dilution assay, H. influenzae 76; format: cell-based; conditions: agar-dilution, ampicillin-resistant strain, read-out: MIC

MOLECULE | MIC
CCC1OC(=O)CC(O)C(C)C(OC2OC(C)C(O)C(N(C)C)C2O)C(CCOc2ccccc2)CC(C)C(=O)C=CC(C)=CC1COC1OC(C)C(N2CCCCC2)C(OC)C1OC (centres unmarked) | > 128 µg/mL
CCCNC1C(C)OC(OCC2C=C(C)C=CC(=O)C(C)CC(CCOc3ccccc3)C(OC3OC(C)C(O)C(N(C)C)C3O)C(C)C(O)CC(=O)OC2CC)C(OC)C1OC (centres unmarked) | > 128 µg/mL
CCCN(CCC)C1C(C)OC(OCC2C=C(C)C=CC(=O)C(C)CC(CCOc3ccccc3)C(OC3OC(C)C(O)C(N(C)C)C3O)C(C)C(O)CC(=O)OC2CC)C(OC)C1OC (centres unmarked) | > 128 µg/mL
CCC1OC(=O)CC(O)C(C)C(OC2OC(C)C(O)C(N(C)C)C2O)C(CCOc2ccccc2)CC(C)C(=O)C=CC(C)=CC1COC1OC(C)C(I)C(OC)C1OC (centres unmarked) | > 128 µg/mL
CCC1OC(=O)CC(O)C(C)C(OC2OC(C)C(O)C(N(C)C)C2O)C(CCOc2ccccc2)CC(C)C(=O)C=CC(C)=CC1COC1OC(C)C=C(OC)C1OC (centres unmarked) | 128 µg/mL
CCC1OC(=O)CC(O)C(C)C(OC2OC(C)C(O)C(N(C)C)C2O)C(CCOc2ccccc2)CC(C)C(=O)C=CC(C)=CC1COC1OC(C)C(n2cccc2)C(OC)C1OC (centres unmarked) | > 128 µg/mL
CCC1OC(=O)CC(O)C(C)C(OC2OC(C)C(O)C(N(C)C)C2O)C(CCOc2ccccc2)CC(C)C(=O)C=CC(C)=CC1COC1OC(C)C(OS(C)(=O)=O)C(OC)C1OC (centres unmarked) | 128 µg/mL
CCC1OC(=O)CC(O)C(C)C(OC2OC(C)C(O)C(N(C)C)C2O)C(CCOc2ccccc2)CC(C)C(=O)C=CC(C)=CC1COC1OC(C)C(OCCOC)C(OC)C1OC (centres unmarked) | > 128 µg/mL
CCC1OC(=O)CC(O)C(C)C(OC2OC(C)C(O)C(N(C)C)C2O)C(CCOc2ccccc2)CC(C)C(=O)C=CC(C)=CC1COC1OC(C)C(N=[N+]=[N-])C(OC)C1OC (centres unmarked) | > 128 µg/mL
CCC1OC(=O)CC(O)C(C)C(OC2OC(C)C(O)C(N(C)C)C2O)C(CCOc2ccccc2)CC(C)C(=O)C=CC(C)=CC1COC1OC(C)C(=NO)C(OC)C1OC (centres unmarked) | > 128 µg/mL
CCC1OC(=O)CC(O)C(C)C(OC2OC(C)C(O)C(N(C)C)C2O)C(CCOc2ccccc2)CC(C)C(=O)C=CC(C)=CC1COC1OC(C)C(NC(C)C)C(OC)C1OC (centres unmarked) | 128 µg/mL

* * *

test system: Haemophilus influenzae C.L.; test: MIC, standard agar-dilution assay, H. influenzae C.L.; format: cell-based
MIC overview

COMPOUND | SYSTEM NAME | UNIT LABEL | MIC
CCC1OC(=O)CC(O)C(C)C(OC2OC(C)C(OC(C)=O)C(N(C)C)C2OC(C)=O)C(CCOc2ccccc2)CC(C)C(=O)C=CC(C)=CC1COC1OC(C)C([n+]2ccccc2)C(OC)C1OC (stereo not drawn) | Haemophilus influenzae C.L. | µg/mL | 64
CCC1OC(=O)CC(O)C(C)C(OC2OC(C)C(OC(C)=O)C(N(C)C)C2OC(C)=O)C(CCOc2ccccc2)CC(C)C(=O)C=CC(C)=CC1COC1OC(C)CC(OC)C1OC (stereo not drawn) | Haemophilus influenzae C.L. | µg/mL | 64
CCC1OC(=O)CC(O)C(C)C(OC2OC(C)C(O)C(N(C)C)C2O)C(CCOc2ccccc2)CC(C)C(=O)C=CC(C)=CC1COC1OC(C)CC(OC)C1OC (stereo not drawn) | Haemophilus influenzae C.L. | µg/mL | 32

* * *

MIC overview
test system: Haemophilus influenzae C.L.; assay: MIC, standard agar-dilution assay, H. influenzae C.L.; assay type: cell-based

COMPOUND | MIC (µg/mL)
CCC1OC(=O)CC(O)C(C)C(OC2OC(C)C(O)C(N(C)C)C2O)C(CCOc2ccccc2)CC(C)C(=O)C=CC(C)=CC1COC1OC(C)C(=O)C(OC)C1OC (stereo not drawn) | 64
CCC1OC(=O)CC(O)C(C)C(OC2OC(C)C(O)C(N(C)C)C2O)C(CCOc2ccccc2)CC(C)C(=O)C=CC(C)=CC1COC1OC(C)C(N(C)C)C(OC)C1OC (stereo not drawn) | 64
CCC1OC(=O)CC(O)C(C)C(OC2OC(C)C(O)C(N(C)C)C2O)C(CCOc2ccccc2)CC(C)C(=O)C=CC(C)=CC1COC1OC(C)C(NCC#N)C(OC)C1OC (stereo not drawn) | 4
CCC1OC(=O)CC(O)C(C)C(OC2OC(C)C(OC(C)=O)C(N(C)C)C2OC(C)=O)C(CCOc2ccccc2)CC(C)C(=O)C=CC(C)=CC1COC1OC(C)C(N)C(OC)C1OC (stereo not drawn) | 16
CCC1OC(=O)CC(O)C(C)C(OC2OC(C)C(O)C(N(C)C)C2O)C(CCOc2ccccc2)CC(C)C(=O)C=CC(C)=CC1COC1OC(C)CC(=O)C1OC (stereo not drawn) | 64
CCC1OC(=O)CC(O)C(C)C(OC2OC(C)C(O)C(N(C)C)C2O)C(CCOc2ccccc2)CC(C)C(=O)C=CC(C)=CC1COC1OC(C)C(N(C)CC#N)C(OC)C1OC (stereo not drawn) | 16
